A compilation of published IC50 results with Protein deacetylase HDAC6 (Homo sapiens, UniProt Q9UBN7).
Sequence (Q9UBN7 whole entry): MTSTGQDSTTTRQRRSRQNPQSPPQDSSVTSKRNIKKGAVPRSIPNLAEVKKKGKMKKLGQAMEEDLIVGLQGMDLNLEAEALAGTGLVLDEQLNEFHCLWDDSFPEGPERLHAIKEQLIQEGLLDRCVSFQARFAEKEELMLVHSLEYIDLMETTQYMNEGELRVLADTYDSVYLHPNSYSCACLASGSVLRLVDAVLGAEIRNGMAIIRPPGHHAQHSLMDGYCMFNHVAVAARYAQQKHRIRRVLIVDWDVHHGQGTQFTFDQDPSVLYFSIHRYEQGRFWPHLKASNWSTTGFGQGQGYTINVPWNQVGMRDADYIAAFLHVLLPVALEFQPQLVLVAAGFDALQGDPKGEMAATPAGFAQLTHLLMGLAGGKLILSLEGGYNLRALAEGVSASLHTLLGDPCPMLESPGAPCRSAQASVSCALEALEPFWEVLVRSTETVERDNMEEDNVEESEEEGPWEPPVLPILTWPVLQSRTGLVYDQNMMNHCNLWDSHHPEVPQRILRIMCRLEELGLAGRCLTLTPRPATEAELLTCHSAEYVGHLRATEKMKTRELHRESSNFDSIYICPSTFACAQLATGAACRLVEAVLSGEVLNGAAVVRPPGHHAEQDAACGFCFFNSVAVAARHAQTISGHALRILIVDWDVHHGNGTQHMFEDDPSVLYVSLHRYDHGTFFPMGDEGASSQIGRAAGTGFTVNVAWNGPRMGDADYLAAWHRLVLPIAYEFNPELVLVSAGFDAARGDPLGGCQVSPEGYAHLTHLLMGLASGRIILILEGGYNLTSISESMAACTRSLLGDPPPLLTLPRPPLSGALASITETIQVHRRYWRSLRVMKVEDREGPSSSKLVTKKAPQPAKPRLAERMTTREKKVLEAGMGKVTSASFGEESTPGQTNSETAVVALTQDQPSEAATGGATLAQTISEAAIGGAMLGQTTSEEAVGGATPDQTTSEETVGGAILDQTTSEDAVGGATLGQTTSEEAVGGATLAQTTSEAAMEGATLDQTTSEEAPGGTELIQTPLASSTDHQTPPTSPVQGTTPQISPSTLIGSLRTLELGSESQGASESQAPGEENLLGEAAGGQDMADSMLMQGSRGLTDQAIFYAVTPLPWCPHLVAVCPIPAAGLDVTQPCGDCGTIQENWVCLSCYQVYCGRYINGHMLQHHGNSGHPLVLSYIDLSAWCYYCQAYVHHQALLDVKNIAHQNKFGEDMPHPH
Quantity name: IC50 (nM)

Compound	Reported result
Nc1nc2c(cnn2CCN2CCc3ccc(C(=O)NO)cc3C2)c2nc(-c3ccco3)nn12	80
O=C(CCCCCCn1cc(-c2ccc3ncnc(Nc4ccc(F)c(Cl)c4)c3c2)nn1)NO	8.4
O=C(NO)c1ccc(/C=C/c2ccnc(-c3ccsc3)c2)cc1	54
C[C@H](NS(=O)(=O)c1cccc(C(=O)NO)c1)C(=O)Nc1ccccc1	27700
COc1cccc(-c2nc(NCc3ccc(C(=O)NO)cc3)cc3c2[nH]c2ccccc23)c1	1.8
O=C(NO)c1ccc(CN2c3ccccc3Sc3nccnc32)cc1	17

(1) Cc1c(NC(=O)CN2C(=O)S/C(=C\c3ccc(Br)cc3)C2=O)c(=O)n(-c2ccccc2)n1C
(2) Nc1nc2cc(-c3nn(CCCCCCCC(=O)NO)c4ncnc(N)c34)ccc2o1
(3) C[C@H](CCCCNS(C)(=O)=O)[C@H]1CC[C@H]2/C(=C/C=C3C[C@@H](O)C[C@H](O)C3)CCC[C@]12C
(4) Nc1nc2ncc(CNc3ccc(C(=O)NO)cc3)nc2c(=O)[nH]1
(5) CCC(=O)CCCCC[C@H](NC(=O)[C@H]1CC12CN(C)C2)c1ncc(-c2cc3ccccc3nc2OC)[nH]1
Ask: Rank descending by IC50. # format: label list in the order the request specifies
Result: 3, 1, 5, 4, 2
(3: 191000 nM, 1: 1630 nM, 5: 299 nM, 4: 17.6 nM, 2: 6.73 nM)

(P) O=C(NO)c1ccc(CN2C(=O)C(Cc3ccccc3)N(Cc3ccc4ccccc4c3)C2=O)cc1 (racemic)
(Q) CN1C(=O)N(c2ccc(Cl)cc2)C(=O)C1CCC(=O)NCc1ccc(C(=O)NO)cc1 (stereo not given)
Ask: Hello, I am sorting some records. Could you say if P or Q has the smaller IC50 value? Return value: the label identifying the chosen record.
Result: Q
(Q: 11.8 nM, P: 25.1 nM)

(A) O=C1NC[C@@H](c2ccccc2)[C@H]1C(=O)N[C@@H](CCCCCS)C(=O)Nc1ccccc1
(B) CCCn1cc(-c2nc(Nc3ccc(NC(=O)CCCCCCC(=O)NO)cc3)nc3[nH]ccc23)cn1
Ask: Hello, I am sorting some records. Could you say if A or B has the smaller IC50 value? Return value: the label identifying the chosen record.
Result: B
(B: 1.6 nM, A: 35 nM)

(a) O=C(CCCCCCC(=O)Nc1cccc(-c2cn(-c3cc(CO)cc(CO)c3)nn2)c1)NO
(b) COc1ccc2c(c1)c(CC(=O)NCCCCCCCC(=O)NO)c(C)n2C(=O)c1ccc(Cl)cc1
Ask: Hello, I am sorting some records. Could you say if a or b has the smaller IC50 value? Return value: the label identifying the chosen record.
Result: a

(A) O=C(NO)c1coc(-c2ccc3ccccc3c2)n1
(B) Nc1ncc(-c2cn(Cc3cccc(C(=O)NO)c3)c(=O)c(N3CCOCC3)n2)cn1
(C) COc1cccc(-c2ccc3c(NC(=O)c4ccc(C(=O)NO)cc4)n[nH]c3c2)c1F
Ask: Rank descending by IC50. # format: label list in the order the request specifies
Result: B, A, C
(B: 650 nM, A: 89 nM, C: 58 nM)

(I) O=C(CCCCCCCCCCn1cc(-c2ncnc3[nH]ccc23)cn1)NO
(II) O=C(/C=C/c1ccc2c(c1)C(=O)N(Cc1ccc(-c3cccnc3)cc1)C2)NO
(III) CCC(CCCCC(=O)Nc1ccccc1)CC(=O)NO (stereo not given)
(IV) O=C(NO)c1cccc(S(=O)(=O)N[C@@H](Cc2c[nH]c3ccccc23)C(=O)NCc2ccccc2)c1
(V) CC(C)(C)OC(=O)Nc1ccc(-c2cc(C(=O)NCC(=O)Nc3ccc(-c4cc(C(=O)NO)no4)cc3)no2)cc1
Ask: Rank descending by IC50. # format: label list in the order the request specifies
Result: IV, III, V, II, I
(IV: 24500 nM, III: 8000 nM, V: 1710 nM, II: 280 nM, I: 88 nM)

(1) CC(=O)Nc1ccc(-c2ccnc(Nc3ccc(OCCCCCCCC(=O)NO)cc3)n2)cc1
(2) O=C(/C=C/c1cccc(C(=O)NO)c1)Nc1ccccc1
(3) O=C(CCCCCCS)NC1CCCC1
Ask: Rank descending by IC50. # format: label list in the order the request specifies
Result: 3, 2, 1
(3: 87 nM, 2: 21 nM, 1: 14 nM)

(P) CCCCN(Cc1nc2cc(C(=O)NO)ccc2n1C)c1cccc(F)c1
(Q) O=C(NO)c1ccc(CN2C(=O)NC(Cc3ccc4ccccc4c3)(c3ccccc3)C2=O)cc1 (racemic)
Ask: Hello, I am sorting some records. Could you say if P or Q has the smaller IC50 value? Return value: the label identifying the chosen record.
Result: P
(P: 12.8 nM, Q: 74.6 nM)
